- Tested on: SNB-78 CNS
- Test Method Notes: NCI tumour cell line growth inhibition, 48 h
Measured Property: TGI

# count of solved cases: 4
[[record]]
compound = "CP(C)C.[Ag][I]"
result = "96.1 µM"

[[record]]
compound = "CCOc1ccc(NC(=O)CCC(=O)NN)cc1"
result = "> 100 µM"

[[record]]
compound = "N#C/C(=C\\c1ccc(O)cc1O)C(N)=O"
result = "> 100 µM"

[[record]]
compound = "O=[N+]([O-])c1cc(/C=N/NS(=O)(=O)c2ccc(F)cc2)c(O)c([N+](=O)[O-])c1"
result = "> 100 µM"


Exercise: State the recorded TGI for this entry: CS(=O)(=O)OCc1c(O)c2c(c(O)c1COS(C)(=O)=O)C(=O)C=CC2=O
Key: > 100 µM

Exercise: Next compound: CC(C)(C)C[P+](C)(C)c1ccccc1
Key: > 100 µM

Exercise: Next compound: COc1cccc(/C=C2\C(=O)N(C(=O)Cc3ccccc3)N=C2C)c1
Key: > 100 µM

Exercise: Next compound: CS(=O)(=O)c1nc(Cl)c(Cl)c(C#N)c1Cl
Key: > 36 µM

Exercise: Next compound: C/C(CN1C(=O)c2ccccc2C1=O)=N\NS(=O)(=O)c1ccc(F)cc1
Key: > 100 µM

Exercise: Next compound: CCCOCN1COCN=C1NC#N
Key: > 100 µM

Exercise: Next compound: Nn1c(N=Nc2c(O)[nH]c3ccccc23)n[nH]c1=S
Key: > 100 µM

Exercise: Next compound: CCCC(=O)OCC(O)CO (configuration not stated)
Key: > 5000 µM

###

- System: SK-MEL-2 melanoma
- Test Method Notes: NCI tumour cell line growth inhibition, 48 h
Reported values of log10 TGI for individual entries
Hi team, quick reminder: these entries are log10 of TGI (µM).

# count of solved cases: 5
[[record]]
compound = "CC(=O)OCC(=O)C1(O)C(C)CC2C3C=C(C)C4=Cc5c(cnn5-c5ccccc5)CC4(C)C3C(O)CC21C (centres undefined)"
measured_property = "log10 TGI"
numeric_readout = 0.59

[[record]]
compound = "O=C(CCO)OCCCCCC/C=C\\CCCCCC/C=C\\CCCCCCCCOC(=O)CCO"
measured_property = "log10 TGI"
numeric_readout = 1.49

[[record]]
compound = "CCN(CC)c1ccc2nc3c4ccccc4c(=NC(=O)c4ccccc4-c4c5ccc(N(CC)CC)cc5[o+]c5cc(N(CC)CC)ccc45)cc-3oc2c1"
measured_property = "log10 TGI"
numeric_readout = 0.96

[[record]]
compound = "O=C(Nc1cc(Cl)c(Cl)cc1Cl)C(=O)C(C(=O)c1ccc2ccccc2c1)C1OC(=O)c2ccccc21 (centres undefined)"
measured_property = "log10 TGI"
numeric_readout = 1.53

[[record]]
compound = "CCCCCc1c(C)[nH]c(/C=c2\\[nH]/c(=C3/C=c4ccccc4=N3)cc2OC)c1C"
measured_property = "log10 TGI"
numeric_readout = -0.71


Exercise: State the recorded log10 TGI for this entry: O=c1cc(-c2ccccc2Cl)[nH]c2cc3c(cc12)OCO3
Key: 0.57

Exercise: Next compound: NC(N)=NS(=O)(=O)c1ccc(NNc2c3ccccc3nc3c(C(=O)Nc4ccc(S(N)(=O)=O)cc4)cccc23)cc1
Key: 1.67

Exercise: Next compound: CCNCCNc1cc(-c2cccc(C(F)(F)F)c2)c(C#N)c2nc3ccccc3n12
Key: 0.56

Exercise: Next compound: C[N+]1=c2c3cccc4cccc(c(=O)n2CCC1)c43
Key: 1.55

Exercise: Next compound: N#CSCC(=O)c1ccc(Cl)cc1
Key: 1.41
